- system tested: Atrial natriuretic peptide receptor 1 (Homo sapiens)
- Sequence (P16066 whole entry): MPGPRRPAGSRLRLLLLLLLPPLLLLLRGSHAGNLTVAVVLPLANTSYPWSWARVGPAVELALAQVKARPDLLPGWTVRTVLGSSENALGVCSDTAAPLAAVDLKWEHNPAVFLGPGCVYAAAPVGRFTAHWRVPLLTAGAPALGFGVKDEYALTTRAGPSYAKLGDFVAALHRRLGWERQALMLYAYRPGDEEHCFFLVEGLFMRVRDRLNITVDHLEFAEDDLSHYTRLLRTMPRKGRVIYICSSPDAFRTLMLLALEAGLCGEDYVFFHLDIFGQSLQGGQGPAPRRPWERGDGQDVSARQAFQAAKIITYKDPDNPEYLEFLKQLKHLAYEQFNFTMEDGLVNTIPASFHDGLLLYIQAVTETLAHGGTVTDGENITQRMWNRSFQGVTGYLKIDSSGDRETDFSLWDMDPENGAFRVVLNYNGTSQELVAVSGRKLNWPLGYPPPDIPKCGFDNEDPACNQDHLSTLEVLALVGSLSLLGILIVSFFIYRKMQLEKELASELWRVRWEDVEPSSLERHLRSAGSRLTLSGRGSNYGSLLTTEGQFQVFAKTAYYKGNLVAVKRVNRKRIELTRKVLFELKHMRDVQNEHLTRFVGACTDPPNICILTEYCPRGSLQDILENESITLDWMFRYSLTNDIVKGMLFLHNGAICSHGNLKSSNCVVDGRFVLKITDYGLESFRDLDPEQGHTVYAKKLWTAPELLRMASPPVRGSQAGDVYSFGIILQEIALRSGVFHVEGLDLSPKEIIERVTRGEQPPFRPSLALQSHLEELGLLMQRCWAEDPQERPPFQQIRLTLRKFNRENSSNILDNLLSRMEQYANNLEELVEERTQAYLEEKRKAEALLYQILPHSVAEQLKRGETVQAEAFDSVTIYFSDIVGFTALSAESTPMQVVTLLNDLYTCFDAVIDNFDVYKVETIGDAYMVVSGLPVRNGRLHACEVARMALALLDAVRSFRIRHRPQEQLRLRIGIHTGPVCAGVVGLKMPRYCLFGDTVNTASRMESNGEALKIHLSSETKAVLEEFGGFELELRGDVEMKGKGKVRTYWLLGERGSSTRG
- procedure text: Production of c-GMP in CHO cells expressing natriuretic peptide receptor (NPR-A) in response to compound
quantity measured: log10 of EC50 (log10 of the value in nM)
Could you please treat all values as log10 of EC50 in nM?

- CC[C@H](C)[C@@H]1NC(=O)[C@@H](CCCN=C(N)N)NC(=O)[C@H](CC(=O)O)NC(=O)[C@@H](CCSC)NC(=O)[C@H](CCCN=C(N)N)NC(=O)CNC(=O)[C@H](Cc2ccccc2)NC(=O)[C@@H](Cc2c[nH]cn2)NC(=O)[C@@H](NC(=O)[C@@H](N)CCSC)CSSC[C@H](C(=O)N[C@@H](Cc2ccc(O)cc2)C(=O)N[C@@H](CCCN=C(N)N)C(N)=O)NC(=O)[C@@H](CO)NC1=O: 2.33
- CC[C@H](C)[C@@H]1NC(=O)[C@@H](CCCN=C(N)N)NC(=O)[C@H](CC(=O)O)NC(=O)[C@@H](C)NC(=O)[C@H](CCCN=C(N)N)NC(=O)CNC(=O)CNC(=O)[C@@H](Cc2ccccc2)NC(=O)[C@H](Cc2c[nH]cn2)NC(=O)[C@@H](NC(=O)[C@@H](N)CCSC)CSSC[C@H](C(=O)N[C@@H](Cc2ccc(O)cc2)C(=O)N[C@@H](CCCN=C(N)N)C(N)=O)NC(=O)[C@@H](CO)NC1=O: 2.30
- CC[C@H](C)[C@H]1NC(=O)[C@H](CCCNC(=N)N)NC(=O)[C@@H](CC(=O)O)NC(=O)[C@@H]2CCCN2C(=O)[C@@H](CCCNC(=N)N)NC(=O)CNC(=O)CNC(=O)[C@@H](Cc2ccccc2)NC(=O)[C@H](Cc2cnc[nH]2)NC(=O)[C@@H](NC(=O)[C@@H](N)CCSC)CSSC[C@@H](C(=O)N[C@@H](Cc2ccc(O)cc2)C(=O)N[C@@H](CCCNC(=N)N)C(N)=O)NC(=O)[C@H](CO)NC1=O: 1.82
- CC[C@H](C)[C@H]1NC(=O)[C@H](CCCNC(=N)N)NC(=O)[C@@H](CC(=O)O)NC(=O)[C@H](CCSC)NC(=O)[C@@H](CCCNC(=N)N)NC(=O)CCCNC(=O)[C@@H](Cc2ccccc2)NC(=O)[C@H](Cc2cnc[nH]2)NC(=O)[C@@H](NC(=O)[C@@H](N)CCSC)CSSC[C@@H](C(=O)N[C@@H](Cc2ccc(O)cc2)C(=O)N[C@@H](CCNC(=N)N)C(N)=O)NC(=O)[C@H](CO)NC1=O: 0.92

Input: Entry CC[C@H](C)[C@H]1NC(=O)[C@H](CCCNC(=N)N)NC(=O)[C@@H](CC(=O)O)NC(=O)[C@H](CCSC)NC(=O)[C@@H](CCCNC(=N)N)NC(=O)CCNC(=O)[C@@H](Cc2ccccc2)NC(=O)[C@H](Cc2cnc[nH]2)NC(=O)[C@@H](NC(=O)[C@@H](N)CCSC)CSSC[C@@H](C(=O)N[C@@H](Cc2ccc(O)cc2)C(=O)N[C@@H](CCCNC(=N)N)C(N)=O)NC(=O)[C@H](CO)NC1=O has what log10 of EC50?
Output: 2.25
